# System: PC-3 prostate
# experiment_summary: NCI tumour cell line growth inhibition, 48 h
readout: TGI

Can you look up the measured TGI of "Cn1c2ccccc2c2[nH]c3ccccc3c(=O)c21" for me?
> 100 µM

How about this compound: "Cc1ccc(Nc2cn(COCc3ccccc3)c(=O)[nH]c2=O)cc1"
> 100 µM

Also, "CC1=NN(C(=O)c2nn(-c3ccc(Cl)cc3)cc2O)C(=O)C1" please.
> 100 µM

And "CSc1nc(-c2ccc(Cl)cc2)c(C#N)c(=O)[nH]1" ?
> 100 µM

Here is the next compound: "O=C1/C(=C/c2ccc(Cl)cc2)Sc2scc(-c3cccc([N+](=O)[O-])c3)[n+]21"
20.6 µM

---

# Tested on: RXF 393 renal
# experiment_summary: NCI tumour cell line growth inhibition, 48 h
For each of the compounds below, state its TGI.

Form field: reported TGI of "O=C1Cc2ccccc2CCc2ccsc21"
> 100 µM

// next record COC(=O)CCC(C)[C@H]1CCC2C3C(C[C@H](OC(C)=O)[C@@]21C)[C@@]1(C)CCC2(C[C@H]1C[C@H]3OC(C)=O)OOC1(CCCCC1)OO2 (stereo partly drawn)
> 100 µM

What about "COc1cccc(C(=O)N[C@@H]2[C@H](O)[C@@H](CO)O[C@H]2n2cnc3c(N)ncnc32)c1" ?
> 100 µM

---

# System: SK-MEL-2 melanoma
# experiment_summary: NCI tumour cell line growth inhibition, 48 h
Please go through the items and note down their TGI.

Sample "CCC(=O)c1c(C(F)(F)F)n([O-])c2ccccc2[n+]1=O" — what was its TGI?
> 100 µM

# repeat for "Cn1c2ccccc2c2[nH]c3ccccc3c(=O)c21"
> 100 µM

Also need "COC(=O)[C@@H]1[C@H](O)CC[C@H]2[C@@]1(C)CC[C@@H](C)[C@]2(COC(C)=O)CC(=O)c1ccoc1" , thanks.
> 50 µM

Here is the next molecule: "COc1cc(Cc2ccc3c(c2C#N)N(C)c2ccccc2S3)cc(OC)c1OC"
> 100 µM

Lookup "COC(=O)c1nc(N)nc(C(=O)OC)c1C(=O)c1ccccc1"
> 100 µM

Also "CC(C)(C)N=c1n(C(C)(C)C)oc(=O)n1-c1ccccc1" , if possible.
> 50 µM

---

# System: SK-OV-3 ovarian
# experiment_summary: NCI tumour cell line growth inhibition, 48 h
readout: TGI

Notebook entry, SK-OV-3 ovarian assay: TGI of "CCCOP(=S)(N1CC1)N1CC1" = ?
> 100 µM

Similarly, COc1cc(C2S/C(=C/c3ccccc3)C(=O)N2c2ccccc2Cl)cc(OC)c1OC (stereo unspecified) ?
> 100 µM

Now consider "COC(=O)C1=NN2c3ccccc3CN([C@@H](C)c3ccccc3)C(=O)[C@H]2[C@@H]1C" .
> 100 µM

Another molecule to check: COC1(Cc2ccccc2)C(=O)c2ccccc2N1C(C)=O (stereo unspecified)
> 100 µM

Lookup "O=C1c2ccn(CCCCN(CCO)CCO)c2C(=O)c2c1c(O)c1ccccc1c2O"
> 43.3 µM

And "Cc1ccc(N2C(=O)C(=O)N(/N=C3\C(=O)Nc4ccccc43)C2=S)cc1" ?
> 100 µM

---

# Tested on: UACC-257 melanoma
# experiment_summary: NCI tumour cell line growth inhibition, 48 h
readout: TGI

Recorded TGI for "COC(=O)C1=NN2c3ccccc3CN([C@@H](C)c3ccccc3)C(=O)[C@H]2[C@@H]1C" , please?
> 100 µM

// query: COC(=O)C1(C)OC(C)=NC1(C(=O)OC)C(=O)OC (centres undefined)
> 100 µM

# repeat for CCSC12CC3c4cccc5c4C(CN5C(=O)c4ccccc4)CC3(O1)N(C)C2=O (centres undefined)
> 100 µM

Now this one: "CCOC(=O)/C(=N/Nc1ccc(Cl)cc1)N1C(=S)C=C(C)NN(C)C1=S"
> 100 µM

Similarly, "O=C1c2ccn(CCCCN(CCO)CCO)c2C(=O)c2c1c(O)c1ccccc1c2O" ?
24.4 µM

Moving on to Cc1cccc(N=C2NC(=O)C(CC(=O)Nc3ccccc3Cl)S2)c1 (centres undefined)
> 100 µM

Likewise for "NC(=S)N/N=C/c1ccc(OC(=O)COc2ccccc2Cl)cn1" ?
> 92.4 µM

Do the same for CC(C)c1cccc(C(C)C)c1NC(=O)C(=O)C1SC(=S)NC1=O (centres undefined) please
> 100 µM

# iterate: "Cc1cn(Cc2ccccc2CCl)c(=O)n(Cc2ccccc2CCl)c1=O"
4.86 µM
